The origin of these recorded values is ChEMBL document CHEMBL1909046.

# study_target: UniProtKB P10635
# Sequence (P10635 whole entry): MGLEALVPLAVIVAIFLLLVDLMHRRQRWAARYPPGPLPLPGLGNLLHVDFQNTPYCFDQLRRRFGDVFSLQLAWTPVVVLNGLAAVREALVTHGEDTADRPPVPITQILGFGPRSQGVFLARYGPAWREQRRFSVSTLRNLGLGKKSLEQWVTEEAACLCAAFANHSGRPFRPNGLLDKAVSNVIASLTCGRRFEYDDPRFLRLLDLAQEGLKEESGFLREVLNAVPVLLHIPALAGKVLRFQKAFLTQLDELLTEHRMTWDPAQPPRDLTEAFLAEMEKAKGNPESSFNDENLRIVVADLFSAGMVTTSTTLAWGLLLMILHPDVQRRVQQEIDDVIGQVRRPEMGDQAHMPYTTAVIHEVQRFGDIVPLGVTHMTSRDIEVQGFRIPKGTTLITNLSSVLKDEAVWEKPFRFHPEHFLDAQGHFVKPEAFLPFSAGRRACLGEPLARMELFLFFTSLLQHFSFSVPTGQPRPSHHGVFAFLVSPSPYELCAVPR
# test_parameters: bti-tn-5b1-4
reported_endpoint: Ki

>>> observed_measurement("C[S+](C)[O-] [DIMETHYL SULFOXIDE]")
"Not Active"
>>> observed_measurement("COC(=O)[C@H]1[C@H]2C[C@@H]3c4[nH]c5cc(OC)ccc5c4CCN3C[C@H]2C[C@@H](OC(=O)c2cc(OC)c(OC)c(OC)c2)[C@@H]1OC")
"Not Active"
>>> observed_measurement("CC(C)C[C@H]1C(=O)N2CCC[C@H]2[C@]2(O)O[C@](NC(=O)[C@@H]3C=C4c5cccc6[nH]cc(c56)C[C@H]4N(C)C3)(C(C)C)C(=O)N12")
"Not Active"

* * *

# study_target: Kappa-type opioid receptor (Homo sapiens)
# Sequence (P41145 whole entry): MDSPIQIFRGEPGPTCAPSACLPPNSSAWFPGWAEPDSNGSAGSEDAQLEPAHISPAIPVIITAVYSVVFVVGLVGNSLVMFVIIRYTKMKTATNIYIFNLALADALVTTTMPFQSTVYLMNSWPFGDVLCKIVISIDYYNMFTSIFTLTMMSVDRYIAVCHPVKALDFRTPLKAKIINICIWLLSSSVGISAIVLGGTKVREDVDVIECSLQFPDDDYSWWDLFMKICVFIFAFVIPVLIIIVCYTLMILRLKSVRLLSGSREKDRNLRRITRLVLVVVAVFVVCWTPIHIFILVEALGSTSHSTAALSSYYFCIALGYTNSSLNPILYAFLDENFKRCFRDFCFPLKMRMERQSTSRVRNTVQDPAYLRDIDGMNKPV
# assay_protocol: DRUGMATRIX: Opiate kappa (OP2, KOP) radioligand binding (ligand: [3H] Diprenorphine)
# Type: cell membranes, HEK293, Membrane
# test_parameters: hek293; Not Active = under 50% inhibition at 10 µM
reported_endpoint: IC50

>>> observed_measurement("Nc1ccc(S(=O)(=O)NC(=O)c2ccccc2)cc1 [SULFABENZAMIDE]")
"Not Active"
>>> observed_measurement("O=C(O)P(=O)(O)O")
"Not Active"
>>> observed_measurement("CCOc1nc2cccc(C(=O)O)c2n1Cc1ccc(-c2ccccc2-c2nnn[nH]2)cc1")
"Not Active"
>>> observed_measurement("CC(C)NC[C@@H](O)COc1cccc2ccccc12")
"Not Active"
>>> observed_measurement("C[C@]12C=CC(=O)C=C1CC[C@@H]1[C@@H]2C(=O)C[C@@]2(C)[C@H]1CC[C@]2(O)C(=O)CO")
"Not Active"

Quick batch: IC50 for everything below.
1. COc1ccnc(C[S+]([O-])c2nc3ccc(OC(F)F)cc3[nH]2)c1OC (stereo not drawn)
2. COc1ccccc1N
3. CN1CCN(C2=Nc3cc(Cl)ccc3Nc3ccccc32)CC1
4. CCN(CC)CCNC(=O)c1ccc(N)cc1 [PROCAINAMIDE]
5. CN1C[C@@H]2C[C@H]1CN2c1cc2c(cc1F)c(=O)c(C(=O)O)cn2C1CC1
6. CCCNC(C)C(=O)Nc1ccccc1C (stereo not drawn)
7. O=c1[nH]c(=O)n(C2CCCO2)cc1F (stereo not drawn)

Result:
1: Not Active; 2: Not Active; 3: Not Active; 4: Not Active; 5: Not Active; 6: Not Active; 7: Not Active

Quick batch: IC50 for everything below.
1. COc1ccc2c(c1OC)C(=O)O[C@@H]2[C@H]1c2c(cc3c(c2OC)OCO3)CCN1C
2. Cn1c(=O)c2c(ncn2C)n(C)c1=O
3. CC(=O)Oc1ccccc1C(=O)O
4. CN(C)C(=N)NC(=N)N

Result:
1. Not Active
2. Not Active
3. Not Active
4. Not Active

Quick batch: IC50 for everything below.
1. C[C@@H]1C/C=C/C=C/C=C/C=C/[C@H](O[C@@H]2O[C@H](C)[C@@H](O)[C@H](N)[C@@H]2O)C[C@@H]2O[C@](O)(C[C@@H](O)C[C@H]3O[C@@H]3/C=C/C(=O)O1)C[C@H](O)[C@H]2C(=O)O
2. CN1CCN(CCCN2c3ccccc3Sc3ccc(C(F)(F)F)cc32)CC1

Result:
1: Not Active; 2: Not Active
